- procedureSummary: Pharmacokinetic study, plasma concentration by LC-MS/MS
- Type: in vivo, male Sprague Dawley rat
- conditions: male, Sprague Dawley, rat, plasma, iv, 1 mg/kg, intravenous 1 mg/kg; 0.167 h; individual animals
metric: level at 0.167 h (ng/mL)

>>> quantitativereadout("C[C@H](O)[C@@H](N)C(=O)N[C@@H](C(=O)N[C@H](CC(N)=O)C(=O)N[C@H](Cc1ccc(O)cc1)C(=O)N[C@@H](C(=O)O)[C@H](C)O)[C@H](C)O")
2400

* * *

- procedureSummary: Pharmacokinetic study, plasma concentration by LC-MS/MS
- Type: in vivo, male Sprague Dawley rat
- conditions: male, Sprague Dawley, rat, plasma, iv, 1 mg/kg, intravenous 1 mg/kg; 0.083 h; individual animals
- Method: A pharmacokinetic study of all-D-TTNYT (SEQ ID NO:2) (RAP-103) following intravenous and oral administration was conducted at a target dose level of 1 mg/kg in the male Sprague Dawley rat. The concentration of RAP-103 in each plasma and brain sample was measured using a suitable LC-MS/MS assay. The assay used was a research grade assay (RGA-1) which was established by assessing the accuracy, precision and the linearity of the method. […]
metric: level at 0.083 h (ng/mL)

>>> quantitativereadout("C[C@H](O)[C@@H](N)C(=O)N[C@@H](C(=O)N[C@H](CC(N)=O)C(=O)N[C@H](Cc1ccc(O)cc1)C(=O)N[C@@H](C(=O)O)[C@H](C)O)[C@H](C)O")
3050

* * *

- procedureSummary: Pharmacokinetic study, plasma concentration by LC-MS/MS
- Type: in vivo, male Sprague Dawley rat
- conditions: male, Sprague Dawley, rat, plasma, iv, 1 mg/kg, intravenous 1 mg/kg; 1 h; individual animals
- Experimental: A pharmacokinetic study of all-D-TTNYT (SEQ ID NO:2) (RAP-103) following intravenous and oral administration was conducted at a target dose level of 1 mg/kg in the male Sprague Dawley rat. The concentration of RAP-103 in each plasma and brain sample was measured using a suitable LC-MS/MS assay. The assay used was a research grade assay (RGA-1) which was established by assessing the accuracy, precision and the linearity of the method. […]
metric: level at 1 h (ng/mL)

>>> quantitativereadout("C[C@H](O)[C@@H](N)C(=O)N[C@@H](C(=O)N[C@H](CC(N)=O)C(=O)N[C@H](Cc1ccc(O)cc1)C(=O)N[C@@H](C(=O)O)[C@H](C)O)[C@H](C)O")
405

* * *

- procedureSummary: Pharmacokinetic study, plasma concentration by LC-MS/MS
- Assay type: in vivo, male Sprague Dawley rat
- conditions: male, Sprague Dawley, rat, plasma, iv, 1 mg/kg, intravenous 1 mg/kg; 0.5 h; individual animals
metric: level at 0.5 h (ng/mL)

>>> quantitativereadout("C[C@H](O)[C@@H](N)C(=O)N[C@@H](C(=O)N[C@H](CC(N)=O)C(=O)N[C@H](Cc1ccc(O)cc1)C(=O)N[C@@H](C(=O)O)[C@H](C)O)[C@H](C)O")
558
